target: Bacterial 70S ribosome; assay: Displacement of [14C]erythromycin from Escherichia coli ribosomes after 30 mins by scintillation spectrometer analysis
pIC50: −log10 of the molar value.
The threshold is inclusive: pIC50 of exactly 5 counts as 1.0; values below receive 0.0.

smiles_data	subject_of_test	label_value
CO[C@@H]1[C@@H](O[C@@H]2O[C@H](C)[C@@H](O[C@H]3C[C@@](C)(O)[C@@H](OC(C)=O)[C@H](C)O3)[C@H](N(C)C)[C@H]2O)[C@@H](CC=O)C[C@@H](C)[C@@H](OC(C)=O)/C=C/C=C/C[C@@H](C)OC(=O)C[C@H]1O	Bacterial 70S ribosome	1.0
CCC(=O)O[C@H]1[C@H](O[C@H]2[C@@H](CC=O)C[C@@H](C)[C@@H](OC(=O)CC)/C=C/C=C/C[C@@H](C)OC(=O)C[C@@H](OC(C)=O)[C@@H]2OC)O[C@H](C)[C@@H](O[C@H]2C[C@@](C)(O)[C@@H](OC(=O)CC(C)C)[C@H](C)O2)[C@@H]1N(C)C	Bacterial 70S ribosome	0.0
CO[C@@H]1[C@@H](O[C@@H]2O[C@H](C)[C@@H](O[C@H]3C[C@@](C)(O)[C@@H](OC(=O)CC(C)C)[C@H](C)O3)[C@H](N(C)C)[C@H]2OC(C)=O)[C@@H](CC=O)C[C@@H](C)[C@@H](OC(C)=O)/C=C/C=C/C[C@@H](C)OC(=O)C[C@H]1OC(C)=O	Bacterial 70S ribosome	0.0
CO[C@@H]1[C@@H](O[C@@H]2O[C@H](C)[C@@H](O[C@H]3C[C@@](C)(O)[C@@H](OC(=O)CC(C)C)[C@H](C)O3)[C@H](N(C)C)[C@H]2O)[C@@H](CC=O)C[C@@H](C)[C@@H](OC(=O)CCC(=O)O)/C=C/C=C/C[C@@H](C)OC(=O)C[C@H]1OC(C)=O	Bacterial 70S ribosome	1.0
CCCC(=O)O[C@H]1[C@H](C)O[C@@H](O[C@H]2[C@H](N(C)C)[C@@H](O)[C@H](O[C@H]3[C@@H](CC=O)C[C@@H](C)[C@@H](O)/C=C/C=C/C[C@@H](C)OC(=O)C[C@@H](O)[C@@H]3OC)O[C@@H]2C)C[C@@]1(C)O	Bacterial 70S ribosome	1.0
CCCC(=O)O[C@H]1[C@H](C)O[C@@H](O[C@H]2[C@H](N(C)C)[C@@H](OC(=O)CC)[C@H](O[C@H]3[C@@H](CC=O)C[C@@H](C)[C@@H](O)/C=C/C=C/C[C@@H](C)OC(=O)C[C@@H](OC(C)=O)[C@@H]3OC)O[C@@H]2C)C[C@@]1(C)O	Bacterial 70S ribosome	0.0
CO[C@@H]1[C@@H](O[C@@H]2O[C@H](C)[C@@H](O[C@H]3C[C@@](C)(O)[C@@H](OC(=O)CC(C)C)[C@H](C)O3)[C@H](N(C)C)[C@H]2O)[C@@H](CC=O)C[C@@H](C)[C@@H](OC(C)=O)/C=C/C=C/C[C@@H](C)OC(=O)C[C@H]1OC(C)=O	Bacterial 70S ribosome	1.0

====

Collected MIC values appear next to each entry.
tested on: Klebsiella pneumoniae; assay: Antimicrobial activity against Klebsiella pneumoniae ATCC 10031 by agar dilution method; assay type: functional; conditions: Klebsiella pneumoniae, ATCC 10031; read-out: MIC
measurement_type: MIC (µg/mL)

smiles_data	endpoint_result
CCCC(=O)O[C@H]1[C@H](C)O[C@@H](O[C@H]2[C@H](N(C)C)[C@@H](OC(=O)CCC(=O)O)[C@H](O[C@H]3[C@@H](CC=O)C[C@@H](C)[C@@H](OC(=O)CCC(=O)O)/C=C/C=C/C[C@@H](C)OC(=O)C[C@@H](O)[C@@H]3OC)O[C@@H]2C)C[C@@]1(C)O	50
CCCC(=O)O[C@H]1[C@H](C)O[C@@H](O[C@H]2[C@H](N(C)C)[C@@H](OC(C)=O)[C@H](O[C@H]3[C@@H](CC=O)C[C@@H](C)[C@@H](O)/C=C/C=C/C[C@@H](C)OC(=O)C[C@@H](O)[C@@H]3OC)O[C@@H]2C)C[C@@]1(C)O	12.5

====

// reported IC50 per item
molecular target: Bacterial 70S ribosome; assay: Displacement of [14C]erythromycin from Escherichia coli ribosomes after 30 mins by scintillation spectrometer analysis

molecule	readout_units	IC50
CO[C@@H]1[C@@H](O[C@@H]2O[C@H](C)[C@@H](O[C@H]3C[C@@](C)(O)[C@@H](OC(=O)CC(C)C)[C@H](C)O3)[C@H](N(C)C)[C@H]2O)[C@@H](CC=O)C[C@@H](C)[C@@H](O)/C=C/C=C/C[C@@H](C)OC(=O)C[C@H]1O (stereo in doubt; 2)	µM	1
CCCC(=O)O[C@H]1[C@H](C)O[C@@H](O[C@H]2[C@H](N(C)C)[C@@H](OC(=O)CCCC(=O)O)[C@H](O[C@H]3[C@@H](CC=O)C[C@@H](C)[C@@H](O)/C=C/C=C/C[C@@H](C)OC(=O)C[C@@H](O)[C@@H]3OC)O[C@@H]2C)C[C@@]1(C)O	µM	9.3

====

molecular target: Bacterial 70S ribosome; assay: Displacement of [14C]erythromycin from Escherichia coli ribosomes after 30 mins by scintillation spectrometer analysis
pIC50: −log10 of the molar value.

compound	pIC50
CO[C@@H]1[C@@H](O[C@@H]2O[C@H](C)[C@@H](O[C@H]3C[C@@](C)(O)[C@@H](OC(=O)CC(C)C)[C@H](C)O3)[C@H](N(C)C)[C@H]2OC(C)=O)[C@@H](CC=O)C[C@@H](C)[C@@H](O)/C=C/C=C/C[C@@H](C)OC(=O)C[C@H]1OC(C)=O	4.47
CO[C@@H]1[C@@H](O[C@@H]2O[C@H](C)[C@@H](O[C@H]3C[C@@](C)(O)[C@@H](OC(=O)CC(C)C)[C@H](C)O3)[C@H](N(C)C)[C@H]2O)[C@@H](CC=O)C[C@@H](C)[C@@H](OC(=O)C(C)C)/C=C/C=C/C[C@@H](C)OC(=O)C[C@H]1OC(C)=O	5.70
CO[C@@H]1[C@@H](O[C@@H]2O[C@H](C)[C@@H](O[C@H]3C[C@@](C)(O)[C@@H](OC(=O)CC(C)C)[C@H](C)O3)[C@H](N(C)C)[C@H]2O)[C@@H](CC=O)C[C@@H](C)[C@@H](OC(C)=O)/C=C/C=C/C[C@@H](C)OC(=O)C[C@H]1O	5.96
CCCC(=O)O[C@H]1[C@H](C)O[C@@H](O[C@H]2[C@H](N(C)C)[C@@H](OC(C)=O)[C@H](O[C@H]3[C@@H](CC=O)C[C@@H](C)[C@@H](OC(C)=O)/C=C/C=C/C[C@@H](C)OC(=O)C[C@@H](OC(C)=O)[C@@H]3OC)O[C@@H]2C)C[C@@]1(C)O	4.48
CCCC(=O)O[C@H]1[C@H](C)O[C@@H](O[C@H]2[C@H](N(C)C)[C@@H](O)[C@H](O[C@H]3[C@@H](CC=O)C[C@@H](C)[C@@H](OC(=O)C(Cl)Cl)/C=C/C=C/C[C@@H](C)OC(=O)C[C@@H](O)[C@@H]3OC)O[C@@H]2C)C[C@@]1(C)O	5.89
CO[C@@H]1[C@@H](O[C@@H]2O[C@H](C)[C@@H](O[C@H]3C[C@@](C)(O)[C@@H](OC(=O)CC(C)C)[C@H](C)O3)[C@H](N(C)C)[C@H]2O)[C@@H](CC=O)C[C@@H](C)[C@@H](OC(=O)CCl)/C=C/C=C/C[C@@H](C)OC(=O)C[C@H]1OC(C)=O	5.77
CCC(=O)O[C@H]1/C=C/C=C/C[C@@H](C)OC(=O)C[C@@H](O)[C@H](OC)[C@@H](O[C@@H]2O[C@H](C)[C@@H](O[C@H]3C[C@@](C)(O)[C@@H](OC(=O)C(C)CC)[C@H](C)O3)[C@H](N(C)C)[C@H]2O)[C@@H](CC=O)C[C@H]1C (some centres undefined)	5.77
CCCC(=O)O[C@H]1[C@H](C)O[C@@H](O[C@H]2[C@H](N(C)C)[C@@H](OC(=O)CCC(=O)O)[C@H](O[C@H]3[C@@H](CC=O)C[C@@H](C)[C@@H](O)/C=C/C=C/C[C@@H](C)OC(=O)C[C@@H](O)[C@@H]3OC)O[C@@H]2C)C[C@@]1(C)O	5.72
CCC(=O)O[C@H]1[C@H](C)O[C@@H](O[C@H]2[C@H](N(C)C)[C@@H](O)[C@H](O[C@H]3[C@@H](CC=O)C[C@@H](C)[C@@H](O)/C=C/C=C/C[C@@H](C)OC(=O)C[C@@H](OC(C)=O)[C@@H]3OC)O[C@@H]2C)C[C@@]1(C)O	5.72
CCCC(=O)O[C@H]1[C@H](C)O[C@@H](O[C@H]2[C@H](N(C)C)[C@@H](OC(C)=O)[C@H](O[C@H]3[C@@H](CC=O)C[C@@H](C)[C@@H](OC(C)=O)/C=C/C=C/C[C@@H](C)OC(=O)C[C@@H](O)[C@@H]3OC)O[C@@H]2C)C[C@@]1(C)O	4.63
CC[C@H]1OC(=O)[C@H](C)[C@@H](O[C@H]2C[C@@](C)(OC)[C@@H](O)[C@H](C)O2)[C@H](C)[C@@H](O[C@@H]2O[C@H](C)C[C@H](N(C)C)[C@H]2O)[C@](C)(O)C[C@@H](C)C(=O)[C@H](C)[C@@H](O)[C@]1(C)O [ERYTHROMYCIN]	6.12
CCCC(=O)O[C@H]1[C@H](C)O[C@@H](O[C@H]2[C@H](N(C)C)[C@@H](O)[C@H](O[C@H]3[C@@H](CC=O)C[C@@H](C)[C@@H](OC(C)=O)/C=C/C=C/C[C@@H](C)OC(=O)C[C@@H](OC(C)=O)[C@@H]3OC)O[C@@H]2C)C[C@@]1(C)O	5.66
CCCC(=O)O[C@H]1/C=C/C=C/C[C@@H](C)OC(=O)C[C@@H](OC(C)=O)[C@H](OC)[C@@H](O[C@@H]2O[C@H](C)[C@@H](O[C@H]3C[C@@](C)(O)[C@@H](OC(=O)CC(C)C)[C@H](C)O3)[C@H](N(C)C)[C@H]2O)[C@@H](CC=O)C[C@H]1C	5.72
CCC(=O)O[C@H]1/C=C/C=C/C[C@@H](C)OC(=O)C[C@@H](O)[C@H](OC)[C@@H](O[C@@H]2O[C@H](C)[C@@H](O[C@H]3C[C@@](C)(O)[C@@H](O)[C@H](C)O3)[C@H](N(C)C)[C@H]2O)[C@@H](CC=O)C[C@H]1C	5.40
